- Read-out: TIMP metallopeptidase inhibitor 1 (TIMP1), TIMP1 (gene 7076)
- procedure-details: BSK_hDFCGF_TIMP1: BioMAP Diversity Plus: hDFCGF Assay for TIMP metallopeptidase inhibitor 1 (TIMP1) Biomarker Activity (AID 2283062)
- cond: primary human foreskin fibroblasts; actives raise or lower the signal
The source made the active and inactive calls. How the source made its calls: active means hit-call score of the fitted dose curve at least 0.9, where 1 is the maximum; inactive means score below 0.9.
quantity: AC50

Take a look at these entries with their results.
>  <query-smiles>
COc1cc(C=O)cc2c1[C@H](COC(N)=O)[C@]1(OC(C)=O)ON2C[C@H]2[C@@H]1N2C(C)=O

>  <obs-value>
1480 nM (active)

$$$$
>  <query-smiles>
C1=Cc2cccc3cccc1c23

>  <obs-value>
inactive

$$$$
>  <query-smiles>
CC(C)N(Cc1ccccc1)C(=O)C(C)(C)C

>  <obs-value>
inactive

$$$$
>  <query-smiles>
COP(=S)(OC)SCN1C(=O)c2ccccc2C1=O

>  <obs-value>
inactive

$$$$

Turning now to a further molecule:
Q: Name the recorded AC50 for `CN(C)[C@@H]1C(=O)C(C(N)=O)=C(O)[C@@]2(O)C(=O)C3=C(O)c4c(O)cccc4[C@@](C)(O)[C@H]3C[C@@H]12` .
Result: inactive

----------
- procedure-details: IUF_NPC2-5_cytotoxicity_72hr: Cytotoxicity Assessment at 72 hours in the Leibniz Research Institute for Environmental Medicine (IUF) Neural Progenitor Cell Migration and Differentiation Assay for Cytotoxicity (NPC2-5) (AID 2284306);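 further: LDH release into supernatant measured by resorufin fluorescence marking membrane damage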
Inconclusive results are not listed. Active and inactive are the calls of the source. Rule for the calls: active = hit-call score of the fitted dose curve at least 0.9, where 1 is the maximum; inconclusive = response in the unintended direction; inactive = score below 0.9.
Please answer using one outcome listed in t = active, f = inactive

Would you please look over these solved cases?
>  <molecule>
CCCCOC(=O)c1ccccc1C(=O)OCc1ccccc1

>  <cat>
f

$$$$
>  <molecule>
CCC[CH2][Sn]([Cl])([CH2]CCC)[CH2]CCC

>  <cat>
t

$$$$
>  <molecule>
CNC(=O)Oc1cccc2c1OC(C)(C)C2

>  <cat>
f

$$$$
>  <molecule>
OCCOCCO

>  <cat>
f

$$$$
>  <molecule>
COP(=S)(OC)SCN1C(=O)c2ccccc2C1=O

>  <cat>
f

$$$$

Q: Would you mind telling me which call this test gave CC(C)(C)C(O)(CCc1ccc(Cl)cc1)Cn1cncn1 (configuration not stated) ?
Result: f

Q: // param item: `[O-][Cl+]O` ; yields the recorded call
Result: f

----------
- procedure-details: ATG_ERE_CIS: Attagene CIS-FACTORIAL HepG2 Assay for Estrogen Response Element (ERE) (AID 2282940)
- cond: HepG2 ERE cis-reporter, Attagene RNA transcript; actives raise or lower the signal
- Description: ATG_CIS is a cell-based, multiplexed-readout assay that uses HepG2, a human liver cell line, with measurements taken at 24 hours after chemical dosing in a 24-well plate.ATG_ERE_CIS is one of 52 assay component(s) measured or calculated from the ATG_CIS assay. […] This assay endpoint, ATG_ERE_CIS, was analyzed with bidirectional fitting relative to DMSO as the negative control and baseline of activity. […]
Activity calls are given as the source filed them. How the source made its calls: active means hit-call score of the fitted dose curve at least 0.9, where 1 is the maximum; inactive means score below 0.9.
Just give me one of these, please: 1 = active, 0 = inactive

>  <compound>
[O-][Cl+]O

>  <cat>
0

$$$$

Now consider the entry below.
Q: What classification did C[N+](C)(C)CC1CO1 (centres undefined) end up with in this test?
Result: 0

----------
- Read-out: Cytochrome P450 (CYP1A1), CYP1A1 (gene 1543)
- procedure-details: LTEA_HepaRG_CYP1A1: Life Technologies and Expression Analysis (LTEA) Assay for Cytochrome P450 (CYP1A1) using HepaRG (AID 2283454)
- cond: mRNA level, 48 h; actives raise or lower the signal
Calls of active or inactive are those of the source. Rule for the calls: active = hit-call score of the fitted dose curve at least 0.9, where 1 is the maximum; inactive = score below 0.9.
Entry note: the call must match one of active, inactive

>  <query-smiles>
COC(=O)Nc1nc2ccccc2[nH]1

>  <cat>
active

$$$$

Q: What outcome does the record of this test show for `CC(C)COC(=O)c1ccccc1C(=O)OCC(C)C` ?
Result: active

Q: In this assay, the call recorded for `Nc1ccc(Oc2ccc(N)cc2)cc1` was what?
Result: active

Q: # fetch the recorded call for `c1ccc2c(c1)oc1ccccc12` here
Result: active

Q: I'd appreciate the recorded outcome for `Clc1ccc(Cl)c(Cl)c1` from this test.
Result: inactive

Q: For `Nc1ccc(Cl)cc1N` , what call appears in the results of this test?
Result: active

Ref: PubChem BioAssay (EPA / NIEHS)
